# Tested on: Huh7 cells expressing a subgenomic RNA replicon of Con1 (genotype 1b) sequence origin
# method-summary: microbe, parasite or virus in culture
# condition-details: Hepatitis C virus, Huh-7
Structures can show the parent of a compound that is named as a salt.
Decide using IC50 alone. Strictly below 4 µM: True. Equal to or above 4 µM: False.

Hello, is IC50 of the following molecule strictly smaller than 4 µM? Oc1cccc2c(O)nccc12 [1,5-Isoquinolinediol, reference compound]
False

Hello, is IC50 of the following molecule strictly smaller than 4 µM? CCC[C@H](NC(=O)[C@@H]1[C@H]2CCC[C@H]2CN1C(=O)[C@@H](NC(=O)[C@@H](NC(=O)c1cnccn1)C1CCCCC1)C(C)(C)C)C(=O)C(=O)NC1CC1 [Telaprevir (VX-950), vx-950, reference compound]
True

Hello, is IC50 of the following molecule strictly smaller than 4 µM? CN/C(=N\c1ccc(C2=NNC(=O)CC2C)cc1)NC#N (stereo not drawn) [Siguazodan, reference compound]
True

---
Hello, is IC50 of the following molecule strictly smaller than 4 µM? c1ccc(-c2ccc(C(c3ccccc3)n3ccnc3)cc2)cc1 (stereo not drawn) [Bifonazole, reference compound]
False

Hello, is IC50 of the following molecule strictly smaller than 4 µM? Nc1ccc(/N=N/c2ccccc2)c(N)n1 [Phenazopyridine (e.g., hydrochloride), Phenazopyridine, reference compound]
False
